# target-or-system: T1, human Neuropeptide Y receptor type 2 (human, UniProt P49146 1-381)
# T1 sequence (looked up): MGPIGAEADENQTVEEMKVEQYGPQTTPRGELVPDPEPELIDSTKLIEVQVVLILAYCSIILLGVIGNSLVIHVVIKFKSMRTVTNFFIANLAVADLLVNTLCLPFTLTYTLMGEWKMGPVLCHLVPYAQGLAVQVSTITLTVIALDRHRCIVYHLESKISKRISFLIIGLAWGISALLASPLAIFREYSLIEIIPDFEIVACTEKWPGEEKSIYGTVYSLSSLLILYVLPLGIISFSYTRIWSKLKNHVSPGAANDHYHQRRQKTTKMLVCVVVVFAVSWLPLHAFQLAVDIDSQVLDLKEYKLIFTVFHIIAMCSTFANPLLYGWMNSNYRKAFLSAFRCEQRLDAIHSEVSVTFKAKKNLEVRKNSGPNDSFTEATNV
# assay-comment: cell-based or functional assay
Where no end group is shown, it is not given here.
quantity-kind: hNPY Y2 pEC50

[[record]]
binder = "PKPEAPGEDASPKEWNRYYASLRKYLNWVTRQRY-NH2 [Peptide 3]"
quantity_kind = "hNPY Y2 pEC50"
recorded_value = "9.2 pEC50"

[[record]]
binder = "PKPEAPLSKQLEEEAVRYYASLRHYLNLVTRQRY-NH2 [Peptide 21]"
quantity_kind = "hNPY Y2 pEC50"
recorded_value = "8.7 pEC50"

[[record]]
binder = "PKPVAPGCDASPAELNRQYSDLRNYWNLVTRQRY-NH2 [Peptide 15]"
quantity_kind = "hNPY Y2 pEC50"
recorded_value = "8.9 pEC50"

[[record]]
binder = "PKPEAPGCDASPEEWNRYYASLRKYLNWVTRQNY-NH2 [Peptide 1]"
quantity_kind = "hNPY Y2 pEC50"
recorded_value = "7.9 pEC50"

[[record]]
binder = "IKPEAPLSKQLEEEAVRYYASLRHYLNLVTRQRY-NH2 [Peptide 2]"
quantity_kind = "hNPY Y2 pEC50"
recorded_value = "8.6 pEC50"

[[record]]
binder = "PKPEAPGCDASPEEWNRYYASLRKYLNWVTRQHY-NH2 [Peptide 14]"
quantity_kind = "hNPY Y2 pEC50"
recorded_value = "8.2 pEC50"

[[record]]
binder = "IKPPYPGCDASPEEQNKYYASLRAYWNLVTRQRY-NH2 [Peptide 8]"
quantity_kind = "hNPY Y2 pEC50"
recorded_value = "9.3 pEC50"

